// provenance: PubChem BioAssay (NCI)

# Tested on: SN12C renal
# assay details: NCI tumour cell line growth inhibition, 48 h
readout kind: GI50

{"compound": "CCCCCCCCCC[C@@H](O)[C@@H]1CC[C@@H]([C@@H]2CC[C@@H]([C@@H](O)CCCCCCCCCC[C@H](O)CC3=CC(C)OC3=O)O2)O1 (stereo not given in full)", "measurement target": "SN12C renal", "result": "16000 nM"}
{"compound": "Nc1c(C(=O)Nc2ccccn2)sc2nc3c(cc12)C(O)CCC3 (stereo not given)", "measurement target": "SN12C renal", "result": "2570 nM"}

Query: I would be grateful if you could share the reported GI50 for `O=[N+]([O-])c1cccc(-c2nc(-c3ccc(Cl)cc3Cl)cn2-c2ccccc2)c1` .
Reply: 1190 nM

Query: I would be grateful if you could share the reported GI50 for `Cc1cc(-c2nnc(/C=C/c3ccc4c(c3)OCO4)o2)n[nH]1` .
Reply: 30000 nM

Query: I would be grateful if you could share the reported GI50 for `O=S(=O)(NCCNc1nccc(-c2c(-c3ccc(F)c(O)c3)nc3sccn23)n1)c1ccc(Cl)cc1` .
Reply: 1540 nM

* * *

Overview of reported TGI across a group of compounds:
# Tested on: SK-OV-3 ovarian
# assay details: NCI tumour cell line growth inhibition, 48 h
All answers are understood in µM, so give the number only.

Consider the worked cases shown below.
{"compound": "CCC/C=C\\C=C\\C1(NS(=O)(=O)c2ccc(C)cc2)CCC(C(C)(C)C)CC1 (stereo not drawn)", "units label": "µM", "TGI": 65.2}
{"compound": "Cc1ccc(Nc2cc(Cl)c([N+](=O)[O-])cc2[N+](=O)[O-])cc1", "units label": "µM", "TGI": 13.1}
{"compound": "O=C1Nc2cc(-c3cccc(O)c3)ccc2/C1=C/c1ccc[nH]1", "units label": "µM", "TGI": 5.22}
{"compound": "CCN(CC)c1c(-c2ccccc2)n[nH]c1C(=O)OC", "units label": "µM", "TGI": 50.5}

// below: TGI requested for another compound
Query: I would be grateful if you could share the reported TGI for `CC(C)(C)c1cc(C(=O)Nc2ccc(C(=O)NCCN)cc2)cc(C(C)(C)C)c1` .
Reply: 20.7

* * *

# System: SN12C renal
# assay details: NCI tumour cell line growth inhibition, 48 h
Overview of reported GI50 across a group of compounds:

Consider the worked cases shown below.
{"compound": "O=C(O)c1cc2ccccc2c2c3c(ccc12)OCO3", "measurement target": "SN12C renal", "GI50": "174 µM"}
{"compound": "C[C@]12CC[C@@H]3c4ccc(O)cc4CC[C@H]3[C@@H]1CC[C@@H]2NS(=O)(=O)c1ccc(Br)cc1", "measurement target": "SN12C renal", "GI50": "1.79 µM"}
{"compound": "CNCC/C=C1\\c2cc3c(cc2-c2c1c1cc(OC)c(OC)cc1c(=O)n2C)OCO3", "measurement target": "SN12C renal", "GI50": "0.207 µM"}
{"compound": "C/C=C/C/C=C/[C@H](C)C[C@H](O)[C@@H]1C[C@@H]2O[C@H]2/C=C/[C@@H]2OC(C)(C)O[C@H]2/C=C/C[C@H](C)CC(=O)O1", "measurement target": "SN12C renal", "GI50": "5.23 µM"}
{"compound": "CC(C)(C)OC(=O)NCCCCn1c2c(c3ccccc3c1=O)C(=O)c1ccccc1-2", "measurement target": "SN12C renal", "GI50": "23.1 µM"}
{"compound": "COc1cc(-n2cc(-c3ccccc3)[nH]c2=O)cc(OC)c1OC", "measurement target": "SN12C renal", "GI50": "47.6 µM"}
{"compound": "CC(C)(C)c1cc(C(=O)Nc2ccc(C(=O)NCCN)cc2)cc(C(C)(C)C)c1", "measurement target": "SN12C renal", "GI50": "1.98 µM"}
{"compound": "COc1cccc(-c2nn(-c3ccccc3)cc2-c2ccnc(NCCCNC(=O)c3cccc(C(F)(F)F)c3)c2)c1", "measurement target": "SN12C renal", "GI50": "6.06 µM"}

// below: GI50 requested for another compound
Query: I would be grateful if you could share the reported GI50 for COc1ccc(C(C)c2cc(OC)c(OC)c(OC)c2)cc1 (centres undefined) .
Reply: 0.546 µM
